# Test system: HL-60
# Assay protocol: NCI tumour cell line growth inhibition, 48 h
Active and inactive are the calls of the source. Rule as the data show it: active = GI50 up to about 1.1 µM and inactive = higher.

Compound	GI50
C/C=C1/CN2CCC34C5=CC(=O)C(c6cc7c(cc6OC)N(C)C6=C(C(=O)OC)CC8(CC)CCCN9CCC67C98)=CC5=NC23CCC1C4C(=O)OC (stereo unspecified)	1.93 µM (inactive)
CC1CC2OC(=O)CC2C[C@@H]1O[Si](C)(C)C(C)(C)C (stereo partly specified)	20.6 µM (inactive)
Cc1cc2c(cc1Cl)Sc1n[nH]c(=O)n1S2(=O)=O	> 100 µM (inactive)
COC(=O)C(=O)C(C(=O)C(=O)Nc1cccc([N+](=O)[O-])c1)c1nc2ccc(Cl)cc2nc1O (stereo unspecified)	> 100 µM (inactive)
Cc1ccc(S(=O)(=O)N/N=C2\CC3C4CCC3C2C4)cc1 (stereo unspecified)	> 100 µM (inactive)
NC(=O)c1ncn2c1CNC(=O)C2	> 100 µM (inactive)

* * *

# Tested on: SK-MEL-28
# Assay protocol: NCI tumour cell line growth inhibition, 48 h
Calls of active or inactive are those of the source. Rule as the data show it: active = GI50 up to about 1.1 µM and inactive = higher.

Compound	GI50
COc1ccc(/C=C/C(=O)/C=C/c2ccc(OC)cc2OC)c(OC)c1	4.83 µM (inactive)
CN(C)c1nc(Cl)c2c(-c3ccccc3)c(-c3ccccc3)oc2n1	> 100 µM (inactive)
CC(C)N1C=[N+](C(C)C)CC1	> 100 µM (inactive)
COc1ccc(/C=C/C(=O)C(C)(C)C)cc1OC	74.6 µM (inactive)
C=C(CO)C(=O)OC1CC(=C)C2CC(O)C(C)C2C2OC(=O)C(=C)C12 (stereo not given)	24.3 µM (inactive)
Nc1cc2c3c(cccc3c1)C(=O)N(c1ccc(OCCN3CCCCC3)cc1)C2=O	22.2 µM (inactive)
COC1(C)OC[C@@]2(C)OC(C)C1(C)C2O[Si](C(C)C)(C(C)C)C(C)C (stereo not given in full)	38.4 µM (inactive)
CCCCS(=O)(=O)CCC(N)C(=O)O (stereo not given)	> 100 µM (inactive)
COC1CC(CC2CCC(C)C(C(C)C(=O)O)O2)OC2(OC(C)(C3CCC(C)(C4OC(C5OC(O)(CO)C(C)CC5C)CC4C)O3)CC2C)C1C (stereo not given)	1.43 µM (inactive)
COc1ccc(/C(=N/NC(=O)NN)C(c2ccc(OC)cc2)C2(O)CNc3c(Cl)cc(Cl)cc32)cc1 (stereo not given)	> 100 µM (inactive)
Cc1ccc2c(ccc3c[n+]4ccccc4c(C)c32)c1.[O-][Cl+3]([O-])([O-])[O-]	3.17 µM (inactive)
COc1cc2c(cc1OCCCCCCCCCCN1C(=O)c3cccc4cccc(c34)C1=O)N=C[C@@H]1CCCN1C2=O	12.3 µM (inactive)
CCOC(=O)c1nc2ccccc2nc1Oc1ccc(F)cc1	> 100 µM (inactive)
Cc1ccc2sc3ccc(N)cc3c(=O)c2c1	> 100 µM (inactive)
CN(C)CCCNC(=O)c1c(O)c2ccccc2[nH]c1=O	> 100 µM (inactive)
CC[n+]1cnc(N)c2c(-c3ccc(Cl)cc3)cn(-c3ccc(C)cc3)c21	9.33 µM (inactive)
CCOC(=O)CP(=S)(S)c1ccccc1 (stereo not given)	> 100 µM (inactive)
NC(=O)CSc1nc2ccccc2c(=O)n1N	> 100 µM (inactive)
CC(C)(C)CC(N)=O	> 100 µM (inactive)
Cc1ccc(/C=C/C(=N/NC(=O)N/N=C(/C=C/c2ccc(C)cc2)C(C)(C)CN2CCCCC2)C(C)(C)CN2CCCCC2)cc1	1.73 µM (inactive)

Cited source: ChEMBL document CHEMBL1201862
